Reference source: patent US9006454B2

- EXPERIMENTAL TARGET: DHODH (Homo sapiens (Human))
- Sequence (Q02127 whole entry): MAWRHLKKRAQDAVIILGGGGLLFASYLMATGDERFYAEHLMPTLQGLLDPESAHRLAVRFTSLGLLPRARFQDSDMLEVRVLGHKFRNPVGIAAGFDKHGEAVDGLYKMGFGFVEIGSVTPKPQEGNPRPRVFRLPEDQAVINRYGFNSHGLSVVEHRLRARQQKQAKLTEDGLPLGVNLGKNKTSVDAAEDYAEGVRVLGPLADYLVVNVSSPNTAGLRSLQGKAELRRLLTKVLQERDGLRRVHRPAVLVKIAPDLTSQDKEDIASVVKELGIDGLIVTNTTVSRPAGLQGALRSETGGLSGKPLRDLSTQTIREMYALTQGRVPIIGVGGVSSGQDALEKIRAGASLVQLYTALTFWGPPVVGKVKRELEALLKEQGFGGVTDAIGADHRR
- TEST: DHODH activity assay (coupled enzyme assay, DCIP reduction, absorbance at 610 nm)
- Format: biochemical
- REPORTED CONDITIONS: compound at 10 uM; read-out: inh @ 10 uM hDHODH (%)
ASSAY ENDPOINT: inhibition at 10 µM (%)
Give bare numbers, in %.

Cc1cc(C(=O)O)c2nc(-c3ccc(-c4ccc(NC(=O)[C@@H]5CCCN5)cc4)cc3)[nH]c2c1 | 94.1

Give inhibition at 10 µM for each of the items listed below.
1. O=C(O)c1cccc2[nH]c(-c3c(F)c(F)c(-c4ccc(F)c(F)c4)c(F)c3F)nc12
2. Cc1cc(C(=O)O)c2[nH]c(-c3ccc(-c4ccc(OCCO)cc4)cc3)nc2c1
3. Cc1cc(C(=O)NC2CCCC2)c2[nH]c(-c3c(F)c(F)c(-c4ccccc4)c(F)c3F)nc2c1
4. O=C(O)c1cccc2[nH]c(-c3c(F)c(F)c(-c4ccc(OCc5ccccc5)cc4)c(F)c3F)nc12
5. O=C(O)c1cccc2[nH]c(-c3ccc(Oc4c(F)cccc4F)cc3)nc12
6. O=C(O)c1cccc2nc(-c3ccc(-c4ccccc4)cc3)oc12

[66.9, 71, 48.5, 91.5, 83.2, 80.1]

Give inhibition at 10 µM for each of the items listed below.
1. O=C(O)c1cccc2[nH]c(-c3ccc(Oc4ccccn4)cc3)nc12
2. O=C(O)c1cccc2[nH]c(-c3ccc(-c4cccc(OC(F)(F)F)c4)cc3)nc12
3. Cc1cc(C(=O)O)c2nc(-c3ccc(Oc4ccccn4)cc3)[nH]c2c1
4. O=C(O)c1cc(F)cc2[nH]c(-c3ccc(-c4cccnc4)cc3)nc12
5. Cc1cc(C(=O)O)c2nc(-c3ccc(-c4cnn(Cc5ccccc5)c4)cc3)[nH]c2c1

[58.6, 89, 75.5, 99.7, 91]

Give inhibition at 10 µM for each of the items listed below.
1. Cc1cc(C(=O)O)c2nc(-c3ccc(-c4cccs4)cc3)[nH]c2c1
2. O=C(O)c1cc(F)cc2[nH]c(-c3c(F)cc(-c4ccccc4)cc3F)nc12

1. 88.4
2. 97.8
